assayExplanation: chemical genetic growth profiling, strain panel (AID 1159580);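 note: tested at 20 µM; growth read once vehicle control cultures reached saturation at 30 °C; 1 = growth at the plate median or of vehicle wells; lower values mean less growth of the strain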
recordedConditions: S. cerevisiae deletion strains, growth OD, locus YBR171W, strain sec66, active compounds read low
In all, about 5,500 compounds went through this assay and about 2,000 (36%) were called active. Inconclusive results (about 18%) are left out. Some of the results follow.
readoutLabel: normalized growth

[[record]]
compound = "COc1cc(NC(C)CCCN)c2ncccc2c1 (stereo unspecified)"
observedmeasurement = 1.01

[[record]]
compound = "COc1cc2c(cc1OC)[C@@H]1C(=O)c3ccc(O)c(CC=C(C)C)c3O[C@@H]1CO2"
observedmeasurement = 0.998

[[record]]
compound = "CC(N)C(=O)OC(C)(C)Cc1ccc(Cl)cc1 (stereo unspecified)"
observedmeasurement = 1.02

[[record]]
compound = "O=C(O)C1(O)C[C@@H](O)C(O)[C@H](O)C1 (stereo partly specified)"
observedmeasurement = 0.983

[[record]]
compound = "COc1cc2c(cc1OC)[C@@H]1C(=O)c3ccc4c(c3O[C@@H]1CO2)C=CC(C)(C)O4"
observedmeasurement = 0.993

[[record]]
compound = "COc1ccc(OC)c(C(O)C(C)N)c1 (stereo unspecified)"
observedmeasurement = 0.991

[[record]]
compound = "CCOC(=O)CCC(=O)O[C@H]1[C@H](O[C@@H]2[C@@H](C)[C@H](O[C@H]3C[C@@](C)(OC)[C@@H](O)[C@H](C)O3)[C@@H](C)C(=O)O[C@H](CC)[C@@](C)(O)[C@H](O)[C@@H](C)C(=O)[C@H](C)C[C@@]2(C)O)O[C@H](C)C[C@@H]1N(C)C"
observedmeasurement = 1.01

[[record]]
compound = "CCOC(=O)C(C)(C)Oc1ccc(Cl)cc1"
observedmeasurement = 0.973

[[record]]
compound = "CCC(=O)O[C@H]1[C@H](O[C@@H]2[C@@H](C)[C@H](O[C@H]3C[C@@](C)(OC)[C@@H](O)[C@H](C)O3)[C@@H](C)C(=O)O[C@H](CC)[C@@](C)(O)[C@H](O)[C@@H](C)C(=O)[C@H](C)C[C@@]2(C)O)O[C@H](C)C[C@@H]1N(C)C"
observedmeasurement = 1.01

[[record]]
compound = "CC(C)c1c(C(=O)c2ccccc2)c(-c2ccccc2)c(-c2ccc(F)cc2)n1CC[C@@H](O)C[C@@H](O)CC(=O)O"
observedmeasurement = 0.984

[[record]]
compound = "CCN(CC)CCNC(=O)c1cc(Br)c(N)cc1OC"
observedmeasurement = 0.983

